The reported numbers originate from the supplement of paper PMC10567573.

B1: TRIM43 (parent)
chain: YQEIFQQLQRSWVKMDQKSKHLKE

# Variants of: B1
# Assay Method Text: protein stability index of a GFP-peptide fusion (GPS, HEK-293T) (PSI 1-6); higher = more stable;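 further: lentivirally expressed fusions sorted by FACS into six bins by GFP to DsRed ratio, PSI derived from sequencing read proportions per bin multiplied by bin number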
# Recorded Conditions: c terminus: a fixed tail appended
Returns one of yes or no; yes when protein stability index is >= 2.

- Primary Sequence: "YQEIFQQFQRSWVKMDQKSKHLKE [L8F]"
  Assigned Label: "yes"
- Primary Sequence: "YQEIFQQLQRSWVKMDQKSKHNKE [L22N]"
  Assigned Label: "yes"
- Primary Sequence: "YQEITQQLQRSWVKMDQKSKHLKE [F5T]"
  Assigned Label: "yes"
- Primary Sequence: "YQEIFQQLQRSWVKMDQNSKHLKE [K18N]"
  Assigned Label: "yes"
- Primary Sequence: "YQEIFQQLQRSWVKMQQKSKHLKE [D16Q]"
  Assigned Label: "yes"
- Primary Sequence: "YQEGFQQLQRSWVKMDQKSKHLKE [I4G]"
  Assigned Label: "no"
- Primary Sequence: "YQEIFQQLQRSWVKMDQESKHLKE [K18E]"
  Assigned Label: "yes"
- Primary Sequence: "YQEIFQQLQRSWVKMDQKSKHLKH [E24H]"
  Assigned Label: "yes"
- Primary Sequence: "YQEIFQQLQRSWVKMDQKWKHLKE [S19W]"
  Assigned Label: "yes"
- Primary Sequence: "YQEIFQPLQRSWVKMDQKSKHLKE [Q7P]"
  Assigned Label: "yes"

Could you tell me if the measured protein stability index of YQEIFQQLQRSWTKMDQKSKHLKE [V13T] reaches 2 or more?
yes

Decide: protein stability index of YQEIFQQLQRSWVKMDQKSYHLKE [K20Y] >= 2?
no

Reported protein stability index reaches at least 2 for YQEIFQQLQRSWVKMDQKSKMLKE [H21M] ?
yes

# bool: protein stability index of YQEIFQQLQRSWVKMDQASKHLKE [K18A] >= 2
yes
